Ref: patent US20200079833A1

target: T1, glucose-dependent insulinotropic peptide (gastric inhibitory polypeptide) receptor (human, UniProt P48546 22-466)
T1 sequence (looked up): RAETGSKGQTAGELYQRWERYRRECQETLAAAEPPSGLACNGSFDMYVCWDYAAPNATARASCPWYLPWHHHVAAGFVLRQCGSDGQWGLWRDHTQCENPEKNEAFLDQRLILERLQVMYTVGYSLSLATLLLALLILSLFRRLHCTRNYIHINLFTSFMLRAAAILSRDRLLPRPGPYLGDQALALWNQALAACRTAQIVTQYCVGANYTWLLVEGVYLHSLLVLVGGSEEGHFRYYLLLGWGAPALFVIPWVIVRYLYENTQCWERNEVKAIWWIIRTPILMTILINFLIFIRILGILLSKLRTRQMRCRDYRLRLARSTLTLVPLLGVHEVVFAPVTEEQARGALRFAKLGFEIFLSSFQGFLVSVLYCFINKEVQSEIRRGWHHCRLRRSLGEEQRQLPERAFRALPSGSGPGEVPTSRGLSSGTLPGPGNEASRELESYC
test-name: cell-based or functional assay
Starred links: 1 amine or outer side, 2 acyl side, 3 side chain; linkers in the order of their positions; H or OH if unused. Non-standard residues stand in square brackets, D forms with d. Groups on a side chain read outwards from the residue. Primed or numbered codes have the meaning given here. No end group written: not given here. *: point of attachment. γGlu = O=C(O)[C@H](CCC(=O)[*:2])N[*:1]; Stearoyl = CCCCCCCCCCCCCCCCCC(=O)*; αMeF = C[C@](N)(Cc1ccccc1)C(=O)O; αMeS = C[C@](N)(CO)C(=O)O; PEG2′ = not defined here; Aib = CC(C)(N)C(=O)O
Each entry below carries its recorded Primary assay EC50 (cAMP), n1.
Value expressed in nM; do not type the unit.

Consider the worked cases shown below.
// Primary assay EC50 (cAMP), n1 lookup, key: HXEGTFTXDVSSYLEGQAAKEFIAWLVKGR (Aib 2; Aib 8; C-terminal amide) [SEQ ID NO 20]
290

For the binder shown here, HXEGTFTSDVSSYLEGQAAKEFIAWLVKGR (Aib 2; α-MeSer 11; C-terminal amide) [SEQ ID NO 21] , give the reported Primary assay EC50 (cAMP), n1.
340

More entries:
Which measured Primary assay EC50 (cAMP), n1 value corresponds to H[Aib]EGS[αMeF]TSDV[αMeS]S[αMeF]LEGEAAK([PEG2′-PEG2′-γGlu-Stearoyl])E[αMeF]IA[αMeF]VVKGG-NH2 [SEQ ID NO 50] ?
26
